Target: PI3K β (p110β/p85α) (Homo sapiens, UniProt P42338)
Construct: purchased Upstate / Millipore Corporation
Sequence (P42338 whole entry): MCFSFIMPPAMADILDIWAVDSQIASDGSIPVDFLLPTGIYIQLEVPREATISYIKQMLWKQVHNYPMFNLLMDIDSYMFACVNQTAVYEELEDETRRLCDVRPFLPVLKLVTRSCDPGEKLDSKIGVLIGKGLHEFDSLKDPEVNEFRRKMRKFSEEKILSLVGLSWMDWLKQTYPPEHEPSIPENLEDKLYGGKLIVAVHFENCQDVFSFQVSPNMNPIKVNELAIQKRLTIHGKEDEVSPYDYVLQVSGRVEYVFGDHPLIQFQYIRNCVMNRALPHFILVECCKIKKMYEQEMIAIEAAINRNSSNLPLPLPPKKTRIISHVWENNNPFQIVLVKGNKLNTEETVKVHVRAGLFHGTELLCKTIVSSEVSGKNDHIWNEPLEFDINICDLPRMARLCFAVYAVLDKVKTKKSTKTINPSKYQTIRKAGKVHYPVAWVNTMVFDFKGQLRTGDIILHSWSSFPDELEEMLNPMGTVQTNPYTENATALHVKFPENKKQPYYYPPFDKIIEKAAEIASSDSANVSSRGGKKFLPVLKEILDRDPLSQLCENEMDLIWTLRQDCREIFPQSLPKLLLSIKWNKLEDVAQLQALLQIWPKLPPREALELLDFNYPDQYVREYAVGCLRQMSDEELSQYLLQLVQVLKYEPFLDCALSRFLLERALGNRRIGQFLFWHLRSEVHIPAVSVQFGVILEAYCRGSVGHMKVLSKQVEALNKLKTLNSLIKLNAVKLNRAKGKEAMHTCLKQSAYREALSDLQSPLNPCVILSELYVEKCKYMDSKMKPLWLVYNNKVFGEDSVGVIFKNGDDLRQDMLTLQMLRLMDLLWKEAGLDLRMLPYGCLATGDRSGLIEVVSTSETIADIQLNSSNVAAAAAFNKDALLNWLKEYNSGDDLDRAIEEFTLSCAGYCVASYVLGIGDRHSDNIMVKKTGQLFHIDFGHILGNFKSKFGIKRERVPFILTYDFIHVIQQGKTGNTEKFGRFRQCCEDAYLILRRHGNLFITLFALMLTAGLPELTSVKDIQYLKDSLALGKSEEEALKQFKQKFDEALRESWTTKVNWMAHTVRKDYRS
Sequence (P27986 whole entry partner): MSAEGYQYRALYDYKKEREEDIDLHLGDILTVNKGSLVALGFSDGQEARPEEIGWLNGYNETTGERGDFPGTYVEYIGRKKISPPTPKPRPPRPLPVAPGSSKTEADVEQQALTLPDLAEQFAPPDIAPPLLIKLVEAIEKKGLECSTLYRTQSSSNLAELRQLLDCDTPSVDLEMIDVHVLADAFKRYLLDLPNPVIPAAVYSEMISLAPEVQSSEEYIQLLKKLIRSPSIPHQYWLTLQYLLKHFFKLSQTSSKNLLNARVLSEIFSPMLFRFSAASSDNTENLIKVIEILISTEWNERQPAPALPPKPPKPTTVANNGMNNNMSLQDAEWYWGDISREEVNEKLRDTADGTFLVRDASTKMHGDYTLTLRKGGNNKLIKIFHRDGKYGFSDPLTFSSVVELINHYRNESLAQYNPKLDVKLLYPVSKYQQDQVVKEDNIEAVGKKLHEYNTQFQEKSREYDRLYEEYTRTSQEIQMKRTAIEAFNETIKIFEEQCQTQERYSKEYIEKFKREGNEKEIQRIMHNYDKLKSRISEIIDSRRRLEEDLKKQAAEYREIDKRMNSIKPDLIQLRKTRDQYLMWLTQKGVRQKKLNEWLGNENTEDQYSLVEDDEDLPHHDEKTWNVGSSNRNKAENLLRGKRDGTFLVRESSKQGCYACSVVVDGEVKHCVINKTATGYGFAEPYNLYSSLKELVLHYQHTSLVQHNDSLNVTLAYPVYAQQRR
Experiment: PI 3-Kinase (human) HTRF assay, PI3K β
Assay type: biochemical
Details: read-out: PI3K β IC50
readout name: IC50

[[record]]
compound = "Nc1nc2cc(-c3ccc4ncc(N5CC(C(=O)NC6CC6)C5)nc4c3)ccc2o1 [Compound 215]"
test_value = "< 1 µM"

[[record]]
compound = "O=C(c1cnc2ccc(-c3cncc(S(=O)(=O)Nc4ccccc4)c3)cn12)N1CCOCC1 [Compound 447]"
test_value = "> 10 µM"

[[record]]
compound = "CS(=O)(=O)CCN1CCC(NC(=O)c2cnc3ccc(-c4ccc5oc(N)nc5c4)cn23)CC1 [Compound 199]"
test_value = "< 10 µM"

[[record]]
compound = "CN1CCC(c2cnc3ccc(-c4ccc5oc(N)nc5c4)cc3n2)CC1 [Compound 385]"
test_value = "< 10 µM"

[[record]]
compound = "C[C@@H]1COCCN1C(=O)c1cnc2ccc(-c3ccc4oc(N)nc4c3)cn12 [Compound 495]"
test_value = "< 10 µM"

[[record]]
compound = "CC(C)(C#N)c1ccc(Nc2ncnc3ccc(-c4ccc5oc(N)nc5c4)cc23)cc1 [Compound 102]"
test_value = "< 1 µM"

[[record]]
compound = "CC(=O)Nc1nc2cc(-c3cc(F)c4oc(N)nc4c3)ccc2s1 [Compound 435]"
test_value = "< 10 µM"

[[record]]
compound = "Nc1nc2cc(-c3ccc4ncc(-c5ccccc5)nc4c3)ccc2o1 [Compound 180]"
test_value = "> 10 µM"


====

Target: PI3K δ (Homo sapiens, UniProt O00329)
Construct: purchased Upstate / Millipore Corporation
Sequence (O00329 whole entry, one chain of several): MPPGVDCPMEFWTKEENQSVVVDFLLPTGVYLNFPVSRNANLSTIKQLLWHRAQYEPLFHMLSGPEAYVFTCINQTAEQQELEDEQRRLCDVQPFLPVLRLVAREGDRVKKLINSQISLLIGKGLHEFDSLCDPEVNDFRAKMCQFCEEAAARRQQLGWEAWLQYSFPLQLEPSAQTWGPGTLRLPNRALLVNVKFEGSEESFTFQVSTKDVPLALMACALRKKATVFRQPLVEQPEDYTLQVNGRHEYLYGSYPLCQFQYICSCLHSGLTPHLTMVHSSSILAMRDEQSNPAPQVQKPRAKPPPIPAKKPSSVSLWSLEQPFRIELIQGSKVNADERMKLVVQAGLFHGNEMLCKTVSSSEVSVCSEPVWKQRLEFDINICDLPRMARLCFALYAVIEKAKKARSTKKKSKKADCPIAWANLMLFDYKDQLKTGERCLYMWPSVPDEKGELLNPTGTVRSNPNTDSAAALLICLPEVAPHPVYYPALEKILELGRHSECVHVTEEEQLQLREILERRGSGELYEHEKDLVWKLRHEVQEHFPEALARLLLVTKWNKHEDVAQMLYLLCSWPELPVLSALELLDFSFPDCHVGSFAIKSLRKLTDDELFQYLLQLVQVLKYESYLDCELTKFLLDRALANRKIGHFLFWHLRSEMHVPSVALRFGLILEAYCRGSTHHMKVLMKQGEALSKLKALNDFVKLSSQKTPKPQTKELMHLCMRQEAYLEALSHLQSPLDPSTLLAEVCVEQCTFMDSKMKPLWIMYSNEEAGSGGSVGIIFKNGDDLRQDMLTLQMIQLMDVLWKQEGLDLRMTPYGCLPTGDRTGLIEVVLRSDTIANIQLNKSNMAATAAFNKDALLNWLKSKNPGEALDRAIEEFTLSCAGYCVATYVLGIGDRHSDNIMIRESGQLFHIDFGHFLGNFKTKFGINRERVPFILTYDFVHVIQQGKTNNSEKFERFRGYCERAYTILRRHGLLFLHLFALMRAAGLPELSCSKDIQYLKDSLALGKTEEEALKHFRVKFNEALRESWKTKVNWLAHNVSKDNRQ
Assay: PI 3-Kinase (human) HTRF assay, PI3K δ
Assay type: biochemical
Conditions: read-out: PI3K δ IC50
Measured IC50 accompanies every entry in the list below.
readout name: IC50

[[record]]
compound = "CC1CN(C(=O)c2cnc3ccc(-c4ccc5oc(N)nc5c4)cn23)CCN1 (centres unmarked)"
readout_name = "IC50"
test_value = "> 10 µM"

[[record]]
compound = "CCN(CC)CCCNc1cnc2ccc(-c3ccc4oc(N)nc4c3)cc2n1"
readout_name = "IC50"
test_value = "< 0.1 µM"

[[record]]
compound = "Cc1cc(-c2ccc3nc(N)oc3c2)cn2c(N3CCN(C)CC3)nnc12"
readout_name = "IC50"
test_value = "> 10 µM"

[[record]]
compound = "Cc1ccn(C2CCN(C(=O)c3cnc4ccc(-c5ccc6oc(N)nc6c5)cn34)CC2)n1"
readout_name = "IC50"
test_value = "> 10 µM"

[[record]]
compound = "NC(=O)[C@@H]1CCCN1c1cnc2ccc(-c3ccc4oc(N)nc4c3)cc2n1"
readout_name = "IC50"
test_value = "> 10 µM"

[[record]]
compound = "Cc1nccn1C1CN(c2cnc3ccc(-c4ccc5oc(N)nc5c4)cc3n2)C1"
readout_name = "IC50"
test_value = "< 10 µM"

[[record]]
compound = "Nc1nc2ccc(-c3ccc4ncc(N5CCOCC5)nc4c3)cc2s1"
readout_name = "IC50"
test_value = "> 10 µM"

[[record]]
compound = "CC(C)(C)N1CCN(C(=O)c2cnc3ccc(-c4ccc5oc(N)nc5c4)cn23)CC1"
readout_name = "IC50"
test_value = "< 10 µM"


====

Measured IC50 accompanies every entry in the list below.
Target: PI3K α (p110α/p85α) (Homo sapiens, UniProt P42336)
Construct: purchased Upstate / Millipore Corporation
Sequence (P42336 whole entry, one chain of several): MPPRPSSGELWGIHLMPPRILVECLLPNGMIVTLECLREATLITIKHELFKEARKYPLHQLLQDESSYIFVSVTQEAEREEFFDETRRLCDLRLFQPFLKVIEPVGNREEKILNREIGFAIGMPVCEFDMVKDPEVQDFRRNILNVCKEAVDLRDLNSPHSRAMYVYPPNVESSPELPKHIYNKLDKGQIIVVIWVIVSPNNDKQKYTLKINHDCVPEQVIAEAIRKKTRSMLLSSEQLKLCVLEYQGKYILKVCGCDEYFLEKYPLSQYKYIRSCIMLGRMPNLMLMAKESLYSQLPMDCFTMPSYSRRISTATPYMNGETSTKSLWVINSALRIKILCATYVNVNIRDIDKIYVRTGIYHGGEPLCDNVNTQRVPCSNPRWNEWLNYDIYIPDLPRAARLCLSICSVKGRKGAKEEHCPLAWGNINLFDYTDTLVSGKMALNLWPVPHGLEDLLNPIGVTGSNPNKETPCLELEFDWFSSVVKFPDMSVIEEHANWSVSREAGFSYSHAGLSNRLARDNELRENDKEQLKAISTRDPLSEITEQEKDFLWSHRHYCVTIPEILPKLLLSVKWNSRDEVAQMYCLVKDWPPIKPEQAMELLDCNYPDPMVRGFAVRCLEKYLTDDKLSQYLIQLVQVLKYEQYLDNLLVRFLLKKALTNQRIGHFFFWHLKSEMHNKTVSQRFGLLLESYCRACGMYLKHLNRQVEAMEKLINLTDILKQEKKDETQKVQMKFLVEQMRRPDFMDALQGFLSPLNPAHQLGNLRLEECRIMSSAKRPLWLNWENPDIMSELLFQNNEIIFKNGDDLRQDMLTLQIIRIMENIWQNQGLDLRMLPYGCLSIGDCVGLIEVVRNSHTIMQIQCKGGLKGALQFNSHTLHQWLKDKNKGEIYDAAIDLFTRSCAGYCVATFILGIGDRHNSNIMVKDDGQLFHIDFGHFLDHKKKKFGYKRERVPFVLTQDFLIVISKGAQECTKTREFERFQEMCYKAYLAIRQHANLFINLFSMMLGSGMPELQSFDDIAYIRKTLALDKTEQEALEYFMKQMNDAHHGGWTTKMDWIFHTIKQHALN
Test: PI 3-Kinase (human) HTRF assay, PI3K α
Type: biochemical
Settings: read-out: PI3K α IC50
readout name: IC50

[[record]]
molecule = "Nc1nc2cc(-c3ccc4ncc(C(=O)N5CCN(C6CC6)CC5)n4c3)ccc2o1 [Compound 263]"
test_value = "< 100 nM"

[[record]]
molecule = "CCn1cnc2ccc(-c3ccc4oc(N)nc4c3)cc2c1=O [Compound 183]"
test_value = "< 100 nM"

[[record]]
molecule = "Nc1nc2cc(-c3ccc4ncc(N5CC(C(=O)N6CCN(CC7CC7)CC6)C5)nc4c3)ccc2o1 [Compound 287]"
test_value = "< 100 nM"

[[record]]
molecule = "Nc1nc2cc(-c3ccc4nc(N)sc4c3)cc(F)c2o1 [Compound 436]"
test_value = "< 100 nM"

[[record]]
molecule = "Cc1cn(C2CCN(c3cnc4ccc(-c5ccc6oc(N)nc6c5)cc4n3)CC2)cn1 [Compound 338]"
test_value = "< 100 nM"

[[record]]
molecule = "CN1CCN(n2cnc3ccc(-c4ccc5oc(N)nc5c4)cc3c2=O)CC1 [Compound 518]"
test_value = "< 1000 nM"

[[record]]
molecule = "CN1CCN(C2CN(C(=O)c3cnc4ccc(-c5ccc6oc(N)nc6c5)cn34)C2)CC1 [Compound 303]"
test_value = "< 100 nM"

[[record]]
molecule = "Cc1nc2ccc(-c3ccc4oc(N)nc4c3)nn2c1-c1ccncc1 [Compound 56]"
test_value = "< 100 nM"

[[record]]
molecule = "Nc1nc2cc(-c3ccc4ncn(C5CC5)c(=O)c4c3)ccc2o1 [Compound 254]"
test_value = "< 1000 nM"

[[record]]
molecule = "Nc1nc2cc(-c3ccc4ncc(C(=O)N5CC[C@H](n6cccn6)C5)n4c3)ccc2o1 [Compound 478]"
test_value = "< 100 nM"

[[record]]
molecule = "CC(=O)Nc1n[nH]c2cc(-c3ccc4oc(N)nc4c3)ccc12 [Compound 430]"
test_value = "< 10000 nM"

[[record]]
molecule = "CC1CN(C(=O)c2cnc3ccc(-c4ccc5oc(N)nc5c4)cn23)CC(C)N1 (centres unmarked) [Compound 142]"
test_value = "< 10000 nM"

[[record]]
molecule = "CCN1CCC(n2cnc3ccc(-c4ccc5oc(N)nc5c4)cc3c2=O)CC1 [Compound 73]"
test_value = "< 1000 nM"

[[record]]
molecule = "Nc1nc2cc(-c3ccc4ncc(C(=O)N5CC[C@@H](F)C5)n4c3)ccc2o1 [Compound 475]"
test_value = "< 100 nM"

[[record]]
molecule = "Nc1nc2cc(-c3cnc4ncc(-c5ccncc5)n4c3)ccc2o1 [Compound 61]"
test_value = "> 10000 nM"

[[record]]
molecule = "CCN1CCN(C(=O)c2cnc3ccc(-c4ccc5oc(N)nc5c4)cn23)CC1 [Compound 141]"
test_value = "< 1000 nM"

[[record]]
molecule = "Nc1nc2cc(-c3ccc4[nH]nc(N)c4c3)ccc2o1 [Compound 427]"
test_value = "> 10000 nM"

[[record]]
molecule = "CC(C)N1CCN(c2cnc3ccc(-c4ccc5oc(N)nc5c4)cc3n2)C(=O)C1 [Compound 392]"
test_value = "> 10000 nM"

[[record]]
molecule = "Cc1cc(-c2ccc3ncc(C(=O)N4CCOCC4)n3c2)cc2nc(N)oc12 [Compound 364]"
test_value = "< 1000 nM"

[[record]]
molecule = "CN1CC(C(=O)N2CCC(Nc3ncnc4ccc(-c5ccc6oc(N)nc6c5)cc34)CC2)C1 [Compound 138]"
test_value = "< 100 nM"

[[record]]
molecule = "CC1CN(c2cnc3ccc(-c4ccc5oc(N)nc5c4)cc3n2)CCO1 (centres unmarked) [Compound 173]"
test_value = "< 100 nM"

[[record]]
molecule = "Nc1nc2cc(-c3ccc4ncn(C5CCNCC5)c(=O)c4c3)ccc2o1 [Compound 75]"
test_value = "< 100 nM"

[[record]]
molecule = "CN(C)C1CCN(C(=O)c2cnc3ccc(-c4ccc5oc(N)nc5c4)cn23)CC1 [Compound 304]"
test_value = "< 1000 nM"

[[record]]
molecule = "Nc1nc2cc(-c3ccc4nc(N)oc4c3)ccc2o1 [Compound 241]"
test_value = "< 1000 nM"

[[record]]
molecule = "CC(C)n1cnc2ccc(-c3ccc4oc(N)nc4c3)cc2c1=O [Compound 206]"
test_value = "< 100 nM"

[[record]]
molecule = "Nc1nc2cc(-c3ccc4ncc(N5CCNC(C(F)F)C5)nc4c3)ccc2o1 (centres unmarked) [Compound 413]"
test_value = "< 100 nM"

[[record]]
molecule = "Nc1nc2cc(-c3ccc4ncc(-c5ccccn5)nc4c3)ccc2o1 [Compound 195]"
test_value = "< 1000 nM"

[[record]]
molecule = "Nc1nc2cc(-c3ccc4ncnc(NC5CCN(C(=O)C6CC6)CC5)c4c3)ccc2o1 [Compound 89]"
test_value = "< 100 nM"

[[record]]
molecule = "Nc1nc2cc(-c3ccc4ncc(N5CCN(CC(F)(F)F)CC5)nc4c3)ccc2o1 [Compound 395]"
test_value = "< 100 nM"

[[record]]
molecule = "Nc1nc2cc(-c3ccc4ncc(C(=O)N5CCOCC5)n4c3)c(Cl)cc2o1 [Compound 370]"
test_value = "< 10000 nM"

[[record]]
molecule = "Nc1nc2cc(-c3ccc4ncc(C(=O)NCCN5CCCC5)n4c3)ccc2o1 [Compound 296]"
test_value = "< 1000 nM"

[[record]]
molecule = "Nc1nc2cccc(-c3ccc4ncc(C(=O)N5CCOCC5)n4c3)c2s1 [Compound 485]"
test_value = "< 10000 nM"

[[record]]
molecule = "CC(=O)Nc1n[nH]c2ccc(-c3ccc4oc(N)nc4c3)cc12 [Compound 431]"
test_value = "> 10000 nM"

[[record]]
molecule = "CN1CCC(Oc2ncnc3ccc(-c4ccc5oc(N)nc5c4)cc23)CC1 [Compound 34]"
test_value = "< 100 nM"

[[record]]
molecule = "NC(=O)[C@@H]1CCCN1C(=O)C1CN(c2cnc3ccc(-c4ccc5oc(N)nc5c4)cc3n2)C1 [Compound 283]"
test_value = "< 100 nM"

